These measurements were taken from patent US20180044434A1.

- target_of_assay: T1, full-length recombinant human PAD4 (human, UniProt Q9UM07 1-663)
- T1 construct: Full-length recombinant; also called peptidylarginine deiminase 4
- assay_method_text: ELISA, immobilized human PAD4
quantity_name: O.D. 490/630 at 0.0625 µg/mL
Lab note: jot the number down without any unit.

humanized anti-PAD4 antibody derived from G8, VH H4.32 / VL L4.17 (antibody, IgG1, V domains shown, IgG1 kappa; also called G8 H4.32/L4.17) VH: EVQLLESGGGLVQPGGSLRLSCAASGFTFSTYAMGWVRQAPGKGLEFVAAIRNDGSWTGYGAAVKGRVTISRDNSKNTVYLQMNSLRAEDTAVYYCAKYTGSSGGSIGAWGQGTLVTVSS VL: SYELTQPPSVSVSPGQTARITCSGGNRNYYYGWYQQKPGQAPVTVIYANDKRPSGIPERFSGSTSGNTTTLTISGVQAEDEADYYCGTADTGKYVFGGGTKLTVLG ... 1.88

Kindly consider the entry below.
In plain terms, humanized anti-PAD4 antibody derived from H7, VH H4.32 / VL L4.06 (antibody, IgG1, V domains shown, IgG1 kappa; also called H7 H4.32/L4.06) VH: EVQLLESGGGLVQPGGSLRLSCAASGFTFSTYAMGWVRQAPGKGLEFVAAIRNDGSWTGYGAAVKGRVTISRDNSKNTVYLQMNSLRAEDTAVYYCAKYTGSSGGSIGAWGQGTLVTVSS VL: SYELTQPPSVSVSPGQTARITCSGGSGRYYYGWYQQKPGQAPVTVIYSSTHRPSGIPERFSGSYSGNTTTLTISGVQAEDEADYYCGTADSSSYVFGGGTKLTVLG has a documented O.D. 490/630 at 0.0625 µg/mL of 1.94
